Measured pEC50 values are reported for all entries that follow.
Target: T1, human IGF-1R expressed on cells (human, UniProt P08069 31-1367)
T1 construct: On MCF-7 tumor cells or on 3T3/CHO transfectants; precursor is processed into alpha and beta subunits; Signal peptide 1-30 left out as stated; also called wild type IGF-1R; IGF-1R 3T3
Assay: flow cytometry, MCF-7 cells
Scale for pEC50: -log10 of concentration given in mol/L; no unit attached.

>  <Binder>
M12-G04 Fab (Fab, V domains shown, Human phage Fab, kappa) VH: EVQLLESGGGLVQPGGSLRLSCAASGFTFSKYTMHWVRQAPGKGLEWVSSIVSSGGWTDYADSVKGRFTISRDNSKNTLYLQMNSLRAEDTAVYYCARDRSIAAAGTGWSVSFVDWFDPWGQGTLVTVSS VL: DIQMTQSPLSLSASVGDRVTITCRASQSINGYLNWYQQKPGKAPNLLIYATSSLQSGVPSRFSGSGSGTDFTLTISSLQPEDFATYYCQQSYSTPPYTFGQGTKLEIK

>  <Quantity Kind>
pEC50

>  <Observed Result>
7.60

$$$$

Q. Bench note: what pEC50 did M14-C03 Fab (Fab, V domains shown, Human phage Fab, kappa) VH: EVQLLESGGGLVQPGGSLRLSCAASGFTFSKYMMSWVRQAPGKGLEWVSYISPSGGLTWYADSVKGRFTISRDNSKNTLYLQMNSLRAEDTAVYYCARDGARGYGMDVWGQGTTVTVSS VL: DIQMTQSPATLSLSPGERATLSCRASQSVSSYLAWYQQKPGQAPRLLIYDASNRATGIPARFSGSGSGTDFTLTISSLEPEDFAVYYCQQRSNWPPEVTFGPGTKVDIK show?
A. 7.60

Q. Bench note: what pEC50 did M14-B01 Fab (Fab, V domains shown, Human phage Fab, kappa) VH: EVQLLESGGGLVQPGGSLRLSCAASGFTFSNYHMAWVRQAPGKGLEWVSVISPTGGRTTYADSVKGRFTISRDNSKNTLYLQMNSLRAEDTATYYCARAGYSYGYGYFDYWGQGTLVTVSS VL: DIQMTQFPATLSVSPGERATLSCRASQSVMRNLAWYQQKPGQPPRLLIYGASKRATGIPARFSGSGSGTAFTLTISNLEPEDFAVYYCHQRSTWPLGTFGPGTKLEAK show?
A. 7.53

Q. Bench note: what pEC50 did M13-C06 Fab (Fab, V domains shown, Human Fab from a phage library, kappa light chain) VH: EVQLLESGGGLVQPGGSLRLSCAASGFTFSIYRMQWVRQAPGKGLEWVSGISPSGGTTWYADSVKGRFTISRDNSKNTLYLQMNSLRAEDTAVYYCARWSGGSGYAFDIWGQGTMVTVSS VL: DIQMTQSPLSLSASVGDRVTITCQASRDIRNYLNWYQQKPGKAPKLLIYDASSLQTGVPSRFGGSGSGTDFSFTIGSLQPEDIATYYCQQFDSLPHTFGQGTKLEIK show?
A. 8.06

Origin of values: patent US20090291088A1
